- System: OVCAR5
- assay_info: drug sensitivity score (DSS) from 5-point dose-response viability curve (DSS (area-under-curve based score)); higher = more sensitive (stronger growth inhibition or killing); extreme values may be limits of the assay
- conditions: exposure time: 72 h; concentration range: 5 concentrations over 10,000-fold range
MET means recorded drug sensitivity score is 0.2 or above; NOT MET means it is below 0.2.

CCc1cncnc1N1CCN(Cc2nc3ccc(C(F)(F)F)cc3[nH]2)CC1    MET
Cn1cc(CNCC2CCN(c3ncc(C(=O)NO)cn3)CC2)c2ccccc21    MET

Q. Hi team, for CNC(=O)c1ccc2cc([C@@]3(O)CCn4cncc43)ccc2c1 , is the recorded drug sensitivity score at or above 0.2?
A. NOT MET

Q. Assess whether reported drug sensitivity score for CN1CCN(CCOc2cc(OC3CCOCC3)c3c(Nc4c(Cl)ccc5c4OCO5)ncnc3c2)CC1 sits at 0.2 or higher.
A. MET

Q. Does the reported drug sensitivity score for Cc1ccc(-c2cc(C(F)(F)F)nn2-c2ccc(S(N)(=O)=O)cc2)cc1 fall at or above the 0.2 mark?
A. NOT MET

Q. Confirm if drug sensitivity score reported for the compound CC(=O)Nc1cccc(-n2c(=O)n(C3CC3)c(=O)c3c(Nc4ccc(I)cc4F)n(C)c(=O)c(C)c32)c1 is 0.2 or above.
A. MET

Q. Answer whether drug sensitivity score of CNS(=O)(=O)Nc1nccc(Cc2c(C)c3ccc(Oc4ncccn4)cc3oc2=O)c1F is greater than or equal to 0.2.
A. NOT MET

Q. Given the entry CN1C(=O)N[C@H](Cc2c[nH]c3c(Cl)cccc23)C1=O , answer whether its drug sensitivity score meets or surpasses 0.2.
A. NOT MET

Hello, the source for this data is the supplement of paper PMC11616607, in case you need it.
